# System Tested: 5-HT2A (Homo sapiens, UniProt P28223)
# Sequence (P28223 whole entry): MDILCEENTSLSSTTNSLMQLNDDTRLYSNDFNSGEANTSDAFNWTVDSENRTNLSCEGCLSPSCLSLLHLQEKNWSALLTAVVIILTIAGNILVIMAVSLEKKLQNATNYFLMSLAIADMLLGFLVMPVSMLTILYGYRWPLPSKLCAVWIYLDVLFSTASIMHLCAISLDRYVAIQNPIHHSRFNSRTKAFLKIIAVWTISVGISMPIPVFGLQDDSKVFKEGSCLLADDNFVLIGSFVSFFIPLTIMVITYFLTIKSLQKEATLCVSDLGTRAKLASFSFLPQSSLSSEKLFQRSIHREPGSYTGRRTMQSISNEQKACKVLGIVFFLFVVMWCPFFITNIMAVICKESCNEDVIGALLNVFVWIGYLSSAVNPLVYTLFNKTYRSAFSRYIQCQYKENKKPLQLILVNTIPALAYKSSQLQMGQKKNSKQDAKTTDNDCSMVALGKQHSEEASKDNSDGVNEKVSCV
# Test Description: Serotonin 5-HT2A in vitro radioligand binding competition assay ([3H]-DOI)
# Design: purchased Epics Therapeutics S.A. (Belgium) FAST-0505B
# Test Conditions: [3H]-DOI radiotracer, membrane extracts
Measured Parameter: IC50

- Compound: "CC(Cc1ncn2ccccc12)N(C)C (stereo not shown) [Compound 44]"
  Result: "1 to 10 µM"
- Compound: "Cc1nc(CC(C)N)n2ccc(F)cc12 (stereo not shown) [Compound 5]"
  Result: "1 to 10 µM"
- Compound: "CC(N)Cc1cnc2ccccn12 (stereo not shown) [Compound 33]"
  Result: "> 10 µM"
- Compound: "Cc1nc(CC(C)N(C)C)n2ccccc12 (stereo not shown) [Compound 24]"
  Result: "> 10 µM"
- Compound: "CC(C)(N)Cc1ncc2ccccn12 [Compound 6]"
  Result: "1 to 10 µM"
- Compound: "CN1CCCC1Cc1ncc2ccccn12 (stereo not shown) [Compound 31]"
  Result: "1 to 10 µM"
- Compound: "Cc1cccn2c(CC(C)N)ncc12 (stereo not shown) [Compound 8]"
  Result: "1 to 10 µM"
- Compound: "CCN(CC)C(C)Cc1ncc2ccccn12 (stereo not shown) [Compound 25]"
  Result: "1 to 10 µM"
- Compound: "CC(Cc1cnc2cc(F)ccn12)N(C)C (stereo not shown) [Compound 38]"
  Result: "> 10 µM"
- Compound: "Cc1ccc2cnc(CC(C)N)n2c1 (stereo not shown) [Compound 10]"
  Result: "1 to 10 µM"
- Compound: "Cc1nc(CCN)c2ccccn12 [Compound 41]"
  Result: "> 10 µM"
- Compound: "CC(Cc1ncc2ccccn12)N1CCOCC1 (stereo not shown) [Compound 28]"
  Result: "1 to 10 µM"
- Compound: "C[C@H](Cc1ncc2ccccn12)N(C)C [Compound 30]"
  Result: "0.101 to 1 µM"
- Compound: "CN(C)CCc1ncc2ccccn12 [Compound 14]"
  Result: "1 to 10 µM"
- Compound: "CC(N)Cc1ncn2ccccc12 (stereo not shown) [Compound 40]"
  Result: "1 to 10 µM"
- Compound: "CC(C)NC(C)Cc1ncc2ccccn12 (stereo not shown) [Compound 26]"
  Result: "0.101 to 1 µM"
- Compound: "Cc1ccn2c(CC(C)N)ncc2c1 (stereo not shown) [Compound 9]"
  Result: "1 to 10 µM"
- Compound: "COc1ccn2c(CC(C)N(C)C)ncc2c1 (stereo not shown) [Compound 16]"
  Result: "> 10 µM"
- Compound: "Cc1nc(CC(C)N(C)C)c2ccc(F)cn12 (stereo not shown) [Compound 46]"
  Result: "1 to 10 µM"
- Compound: "CC(N)Cc1ncc2ccccn12 (stereo not shown) [Compound 2]"
  Result: "1 to 10 µM"
- Compound: "Cc1nc(CC(C)N)c2ccc(F)cn12 (stereo not shown) [Compound 42]"
  Result: "1 to 10 µM"
- Compound: "Cc1ccn2c(CC(C)N(C)C)ncc2c1 (stereo not shown) [Compound 22]"
  Result: "> 10 µM"
- Compound: "CC(N)Cc1ncc2cc(F)ccn12 (stereo not shown) [Compound 4]"
  Result: "0.101 to 1 µM"
- Compound: "CN(C)CCc1cnn2ccccc12 [Compound 49]"
  Result: "> 10 µM"
- Compound: "Cc1nc(CC(C)N)n2ccccc12 (stereo not shown) [Compound 11]"
  Result: "1 to 10 µM"
